assay.procedure: KLF5 expression inhibitors, confirmation, DLD-1 cells, luminescence (AID 1834);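 further: 0% = DMSO wells and 100% = LY294002 at 200 µM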
experimental.setup: DLD-1 KLF5 promoter firefly luciferase reporter, at 4 µM, active compounds read high
The other results are listed elsewhere or left out.
Tick True if inhibition is 80% or greater. Tick False if inhibition is less than 80%.

// below: answered compounds
INSERT INTO results (compound, class) VALUES
  ('CCOc1ccccc1NC(=O)Cn1nnc(C(=O)NCc2cccs2)c1N', 'True'),
  ('O=C(NC(Nc1nc2ccc([N+](=O)[O-])cc2s1)(C(F)(F)F)C(F)(F)F)c1ccccc1', 'True'),
  ('CCOC(=O)c1sc(NC(=O)c2sc(C)nc2C)nc1C', 'False'),
  ('CCOC(=O)CSC1=C(C#N)C(c2sccc2C)CC(=O)N1 (configuration not stated)', 'False'),
  ('CSc1nc(N(C)NC(=O)c2cccc(C)c2)c2ccccc2n1', 'True'),
  ('COc1cccc(/C=N/Nc2ncc(C(F)(F)F)cc2Cl)c1O', 'True'),
  ('Cc1ccc(-c2cn3cc(C)ccc3n2)cc1', 'True'),
  ('Cc1ccc2[nH]c(=O)c(CN(CCCN(C)C)C(=O)Nc3cccc(Cl)c3)cc2c1', 'False');

Task: Is inhibition for CCCCCCCCn1c2c(c(=N)c3c1CCC3)CCCC2 at or above 80%?
Output: True

Task: Textbook exercise: given the entry CN(c1ccc2nc3ccccc3c(=O)n2n1)C1CCCCC1 , state whether its inhibition is greater than or equal to 80%.
Output: False

Task: Test whether the compound COc1ccccc1N1CCN(C(=O)c2cc(=O)c3cc(C)cc(C)c3o2)CC1 records inhibition of 80% or higher.
Output: True

Task: In plain terms: is recorded inhibition at least 80% for CC(=O)c1ccc(Oc2cc(C)nc(-n3nc(C)cc3C)n2)cc1 ?
Output: False

---

tested.target: Nuclear receptor coactivator 1 (Homo sapiens) (UniProt Q15788)
Sequence (Q15788 whole entry, looked up): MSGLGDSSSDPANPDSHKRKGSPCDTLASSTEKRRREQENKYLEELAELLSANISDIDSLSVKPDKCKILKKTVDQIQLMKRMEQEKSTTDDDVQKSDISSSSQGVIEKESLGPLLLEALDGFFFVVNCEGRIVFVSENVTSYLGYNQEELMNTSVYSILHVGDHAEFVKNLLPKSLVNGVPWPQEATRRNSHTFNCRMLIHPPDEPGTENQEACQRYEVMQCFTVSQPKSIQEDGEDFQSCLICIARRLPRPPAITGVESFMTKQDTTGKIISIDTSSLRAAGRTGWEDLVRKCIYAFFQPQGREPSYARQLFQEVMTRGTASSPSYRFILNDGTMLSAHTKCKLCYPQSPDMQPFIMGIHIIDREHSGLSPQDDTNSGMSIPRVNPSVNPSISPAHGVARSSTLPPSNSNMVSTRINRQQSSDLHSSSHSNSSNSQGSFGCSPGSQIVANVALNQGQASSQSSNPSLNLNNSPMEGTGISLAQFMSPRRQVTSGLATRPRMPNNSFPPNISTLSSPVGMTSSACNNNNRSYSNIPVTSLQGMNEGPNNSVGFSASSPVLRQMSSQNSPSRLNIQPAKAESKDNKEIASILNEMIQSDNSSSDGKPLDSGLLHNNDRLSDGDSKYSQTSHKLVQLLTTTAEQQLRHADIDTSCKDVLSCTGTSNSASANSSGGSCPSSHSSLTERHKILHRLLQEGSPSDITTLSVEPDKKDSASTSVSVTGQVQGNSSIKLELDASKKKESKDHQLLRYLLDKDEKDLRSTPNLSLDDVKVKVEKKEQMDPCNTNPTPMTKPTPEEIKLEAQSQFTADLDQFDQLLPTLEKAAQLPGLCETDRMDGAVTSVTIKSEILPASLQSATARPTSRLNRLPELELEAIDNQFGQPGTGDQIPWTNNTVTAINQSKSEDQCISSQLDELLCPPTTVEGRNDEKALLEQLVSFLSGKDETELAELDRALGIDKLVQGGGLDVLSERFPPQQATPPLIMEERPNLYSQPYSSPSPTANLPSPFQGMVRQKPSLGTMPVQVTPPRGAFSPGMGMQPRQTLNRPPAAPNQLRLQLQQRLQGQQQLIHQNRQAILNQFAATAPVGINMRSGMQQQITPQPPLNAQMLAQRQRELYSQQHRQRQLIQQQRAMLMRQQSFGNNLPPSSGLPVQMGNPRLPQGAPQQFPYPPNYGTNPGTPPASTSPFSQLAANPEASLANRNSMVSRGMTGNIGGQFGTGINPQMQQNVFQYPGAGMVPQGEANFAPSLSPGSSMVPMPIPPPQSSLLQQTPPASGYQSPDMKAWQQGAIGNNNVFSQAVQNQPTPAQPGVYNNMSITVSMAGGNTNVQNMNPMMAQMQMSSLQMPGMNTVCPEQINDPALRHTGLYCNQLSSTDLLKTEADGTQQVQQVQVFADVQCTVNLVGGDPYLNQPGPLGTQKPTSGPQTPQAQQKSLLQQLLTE
assay.procedure: SRC1 coactivator transcriptional activity inhibitors, confirmation, cell-based, luminescence, quadruplicate (AID 588820);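 further: 0% = DMSO wells and 100% = gossypol 36 µM treated wells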
experimental.setup: HEK293 GAL4-SRC1 luciferase reporter, at 3.6 µM, active compounds read high
Field: inhibition. Provide a value for each of the compounds that follow.
Give bare numbers, in %.

INSERT INTO assay_data (compound, property, reported_measurement) VALUES
  ('CC[C@H](C)[C@H](NC(N)=O)C(=O)NCCc1ccc(OC)c(OC)c1', 'inhibition', -11),
  ('O=C(NC(=S)/C(=C1\CCCCCN1)[N+](=O)[O-])c1ccccc1', 'inhibition', -25.3),
  ('COc1cccc(-c2ccc3ncnc(NCc4cccnc4)c3c2)c1', 'inhibition', 24.8),
  ('COc1ccc(CN2CCN(C(=O)c3ccc(S(=O)(=O)N4CCCCCC4)cc3)CC2)cc1', 'inhibition', -2.25),
  ('CC(=NNC(=S)N1CC2CCC(CC2)C1)c1ccccn1', 'inhibition', 1.55),
  ('CC1CCc2c(sc(NC(=O)CSc3ncn[nH]3)c2C#N)C1 (stereo not drawn)', 'inhibition', 31.9),
  ('Cn1c(=N)n(CC(=O)c2ccc(Cl)c(Cl)c2)c2ccccc21', 'inhibition', -189),
  ('COc1cccc2c1C(=O)c1c(O)c3c(c(O)c1C2=O)CC(O)(C(C)=O)CC3OC1CC(O)C(O)C(C)O1 (stereo not drawn)', 'inhibition', -3.87);

Batch lookup, inhibition per entry.
1. O=C(Nc1nc(-c2ccccc2)cs1)c1ccccc1NS(=O)(=O)c1ccc(F)cc1
2. N#CC1(NC(=O)CSc2nnc(-c3ccccc3F)o2)CCCCC1
3. O=C(COc1ccccc1-c1ccccc1)N/N=C/c1ccncc1

Output:
1: 45; 2: -24.1; 3: -7.29

Dear reader, for each entry below, please note its inhibition.
1. CCc1cc(-c2[nH]ncc2-c2ccc3c(c2)OCO3)c(O)cc1O
2. COc1ccccc1/C=C/C(=O)c1c2c(c(C)[nH]c1=O)CCCC2
3. COC(=O)c1ccc(C(=O)N2CCCC(Nc3ccc(F)c(F)c3)C2)cc1 (stereo not drawn)
4. C[C@H]1O[C@@H](O[C@H]2[C@@H](O)C[C@H](O[C@H]3[C@@H](O)C[C@H](O[C@H]4CC[C@@]5(C)[C@H](CC[C@@H]6[C@@H]5C[C@@H](O)[C@]5(C)[C@@H](C7=CC(=O)OC7)CC[C@]65O)C4)O[C@@H]3C)O[C@@H]2C)C[C@H](O)[C@@H]1O
5. O=C(COc1ccccc1O)NNc1ccccc1

Output:
1: 27.7; 2: 59; 3: -59.6; 4: 80.6; 5: -12.2

I'm hoping you can list inhibition for every compound here, please.
1. COc1ccc(S(=O)(=O)Nc2ccccc2C(=O)N2CCCC2)cc1OC
2. COc1ccc(-c2csc3ncnc(NCCCO)c23)cc1
3. O=C(c1ccccc1)C1CCN(C(=O)c2cccs2)CC1
4. CCN(CC)c1ccc(C(NC(=O)C(C)C)c2ccc3cccnc3c2O)cc1 (stereo not drawn)
5. CCOc1ccc(-n2c(C)c(C(C)=O)c3cc(O)ccc32)cc1

Output:
1. -5.26
2. 50.2
3. -10
4. 78.3
5. 60.8

Consider the following items and state reported inhibition for each.
1. O=C(N/N=C/c1cc(Cl)cc(Cl)c1O)c1ccncc1
2. O=C(CCl)Nc1ccc(Oc2cnc3ccccc3n2)cc1
3. CC(=O)NC(c1cccs1)c1cc(F)c2cccnc2c1O (stereo not drawn)
4. CC(=O)c1ccc(Nc2ncnc3ccc(Br)cc23)cc1
5. COCC(C)n1c(C)cc(C(=O)COC(=O)c2cccn2C)c1C (stereo not drawn)
6. COc1ccc(-c2[nH]ncc2CN2CCC(O)(c3ccc(Cl)cc3)CC2)cc1
7. CN(C)C(=O)c1ccc(-c2n[nH]c(=O)c3ccccc23)cc1
8. Cn1c(=O)c2[nH]c(Nc3ccccc3)nc2n(C)c1=O

Output:
30.7
4.66
14.3
56.4
-58.2
13.2
34.3
-22.1

---

tested.target: Induced myeloid leukemia cell differentiation protein Mcl-1 (Homo sapiens)
assay.procedure: inhibitors of MCL1 binding to BIM-BH3, confirmation, biochemical, fluorescence polarization, triplicate (AID 2168);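 further: 0% = DMSO wells and 100% = unlabeled Bim-BH3 control peptide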
experimental.setup: GST-MCL1 / FITC-Bim-BH3 fluorescence polarization; at 10.9 µM; active compounds read high
Some of the results follow.
I would appreciate it if you labelled entries y when inhibition is 40% or higher, otherwise n.

These solved cases illustrate the format of a correct answer.
INSERT INTO results (mol_smiles, class) VALUES
  ('C=CCNc1nnc(SCC(=O)N2CCCCC2)c2ccccc12', 'y'),
  ('O=C(COC(=O)c1ccccc1C(=O)N1CCN(c2ccccc2)CC1)NCc1ccccc1', 'n'),
  ('C=CCn1c(=S)[nH]c2scc(-c3ccco3)c2c1=O', 'n'),
  ('O=c1[nH]c(=S)[nH]c2[nH]c(=S)[nH]c12', 'y'),
  ('Cc1ccc(C(=O)O)cc1-c1ccc(/C=C2\SC(=O)N(CC(=O)Nc3ccc4c(c3)OCO4)C2=O)o1', 'y');

Kindly review the next compound as well.
Task: Entry N/C(=N\OC(=O)CCc1ccccc1)c1ccc(Cl)cc1 : is its inhibition no less than 40%?
Output: n

---

Test system: transactivating tegument protein VP16 (Human herpesvirus 1), Gal4-VP16 luciferase reporter
assay.procedure: VP16 transactivation inhibitors, counter-screen for SRC3 inhibitor project, cell-based, luminescence, high throughput (AID 588794)
experimental.setup: mammalian cells, VP16-driven luciferase reporter luminescence; at 3.6 µM; active compounds read high
Would you kindly list inhibition for each of these compounds?
Give bare numbers, in %.

Below: 4 compounds and their reported inhibition.
INSERT INTO assay_data (mol_smiles, tested_target, reported_measurement) VALUES
  ('O=C1C(Nc2ccccc2)=C(N2CCCCC2)C(=O)c2ccccc21', 'transactivating tegument protein VP16 (Human herpesvirus 1), Gal4-VP16 luciferase reporter', 39.6),
  ('COc1cccc(-c2ccc3ncnc(NCc4cccnc4)c3c2)c1', 'transactivating tegument protein VP16 (Human herpesvirus 1), Gal4-VP16 luciferase reporter', 31.6),
  ('Cc1ccc(NC(=O)CCC(=O)N/N=C/c2ccc(O)cc2O)cc1', 'transactivating tegument protein VP16 (Human herpesvirus 1), Gal4-VP16 luciferase reporter', 7.07),
  ('CCCn1c(C)cc(C(=O)COc2ccc(C)nc2[N+](=O)[O-])c1C', 'transactivating tegument protein VP16 (Human herpesvirus 1), Gal4-VP16 luciferase reporter', 6.56);

Now look at this one.
Task: Provide inhibition value for the following compound: Cc1ccc(NC(=O)c2ccc(Nc3c([N+](=O)[O-])cc([N+](=O)[O-])cc3[N+](=O)[O-])cc2)cc1
Output: 2.96

---

assay.procedure: StAR promoter reporter inhibitors, counter-screen for LRH-1 inverse agonist project, cell-based, luminescence, high throughput (AID 651611)
experimental.setup: StAR promoter luciferase reporter counterscreen, at 3.6 µM, active compounds read high
The label depends only on inhibition: Met if it is at least 10%, Not met if it is smaller.

INSERT INTO assay_data (mol_smiles, class) VALUES
  ('Cn1cc(Cl)c(C(=O)OCC(=O)Nc2ccc(S(N)(=O)=O)cc2)n1', 'Met'),
  ('O=C(CCl)Nc1cccn2ncnc12', 'Met'),
  ('COc1ccc(C2=Nn3c(nnc3-c3ccncc3)SC2)cc1OC', 'Met'),
  ('CN1C=C/C(=C\c2cc[n+](C)c3ccccc23)c2ccccc21', 'Met'),
  ('CCCCCCn1c2c(c(=N)c3c1CCC3)CCC2', 'Met');

Task: Is inhibition at least 10%? Consider COc1ccc(CCNC(=O)c2ccc(CSc3ccc(Cl)cc3)o2)cc1OC
Output: Not met

Task: # check: inhibition of Cc1cc(C)c(C(N)=O)c(Nc2cccc3ccccc23)n1 is greater than or equal to 10%
Output: Not met

Task: Does inhibition meet or surpass 10% for COc1ccc(/C=N/n2c(SC)nnc2-c2ccccc2)c(OC)c1OC ?
Output: Met

Task: State whether the measured inhibition reaches 10%, counting equality as reaching it, for CCOc1ccc(NC(=O)COC(=O)COc2cccc3c2OC(C)(C)C3)cc1
Output: Not met

Task: Quick check, inhibition >= 10%? NS(=O)(=O)c1ccc(CCNC(=O)COc2ccc3c4c(c(=O)oc3c2)CCC4)cc1
Output: Met

Task: Item Cc1cccc(NC(=O)COC(=O)c2cccs2)c1C with inhibition of 10% or above?
Output: Not met
